# Tested system: Tubulin alpha chain (Sus scrofa) (UniProt P02550)
# Sequence (P02550 whole entry, looked up): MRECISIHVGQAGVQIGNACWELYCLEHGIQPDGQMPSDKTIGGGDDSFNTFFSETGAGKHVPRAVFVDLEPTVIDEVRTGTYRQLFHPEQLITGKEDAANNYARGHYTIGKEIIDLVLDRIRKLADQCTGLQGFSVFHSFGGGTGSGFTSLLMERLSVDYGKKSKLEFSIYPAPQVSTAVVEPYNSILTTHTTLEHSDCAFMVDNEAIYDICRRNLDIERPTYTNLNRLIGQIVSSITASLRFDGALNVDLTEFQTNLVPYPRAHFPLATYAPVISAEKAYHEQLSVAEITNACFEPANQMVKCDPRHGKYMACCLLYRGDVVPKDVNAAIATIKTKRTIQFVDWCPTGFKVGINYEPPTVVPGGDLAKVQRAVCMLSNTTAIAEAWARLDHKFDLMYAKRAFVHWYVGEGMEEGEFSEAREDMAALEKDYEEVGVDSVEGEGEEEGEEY
# Test description: Compound was tested in vitro for inhibition of tubulin polymerization, expressed as ratio to that obtained for paclitaxel
# Assay type: functional
# Tubulin polymerization per record follows
Keep it simple and answer with nothing but the number.

Compound	Tubulin polymerization
CC(=O)O[C@H]1C(=O)[C@@]2(C)[C@H]([C@H](OC(=O)c3ccccc3)[C@]3(O)C[C@H](OC(=O)[C@H](O)[C@@H](NC(=O)c4ccccc4)c4ccccc4)C(C)=C1C3(C)C)[C@]1(OC(C)=O)CO[C@@H]1C[C@@H]2O [PACLITAXEL]	1
CC(=O)O[C@H]1C(=O)[C@@]2(C)C([C@H](OC(=O)c3ccccc3)[C@]3(O)C[C@H](OC(=O)[C@H](O)[C@@H](NC(=O)c4ccccc4)c4ccccc4)C(C)=C1C3(C)C)[C@]1(OC(C)=O)CO[C@@H]1C[C@@H]2OCOC(=O)N(CCOC(=O)CCCc1ccc(N(CCCl)CCCl)cc1)CCOC(=O)CCCc1ccc(N(CCCl)CCCl)cc1 (stereo partly drawn)	70

Measured Tubulin polymerization, CC(=O)O[C@H]1C(=O)[C@@]2(C)C([C@H](OC(=O)c3ccccc3)[C@]3(O)C[C@H](OC(=O)[C@H](O)[C@@H](NC(=O)c4ccccc4)c4ccccc4)C(C)=C1C3(C)C)[C@]1(OC(C)=O)CO[C@@H]1C[C@@H]2OCOC(=O)CCCc1ccc(N(CCCl)CCCl)cc1 (stereo partly drawn) : 62
